System: SH-SY5Y neuroblastoma cells
assay.comment: Cell viability study, MTS Cell Titer 96 Aqueous One Solution assay
test.conditions: 1 mM compound in 0.16% DMSO
Each entry below lists one item and its recorded decrease in 24 hr cell viability compared to DMSO treated cells value.
Provide only the numeric value, understood in %.

Oc1c(I)cc(Cl)c2cccnc12 ... 50

## Input Any idea what its decrease in 24 hr cell viability compared to DMSO treated cells is? The compound is COc1nc(N2C(=O)CCCC2=O)nc(OC)c1O
## Output 30

---

Tested on: SH-SY5Y neuroblastoma cells
assay.comment: Cell viability study, MTS Cell Titer 96 Aqueous One Solution assay
test.conditions: 1 mM compound in 0.16% DMSO
attribute.measured: decrease in 24 hr cell viability compared to DMSO treated cells

O=C1CCC(=O)N1c1ncc(O)cn1 [HK-2] ... approximately 20%
Cc1c(C)c2c(c(C)c1O)CCC(C)(C(=O)O)O2 (stereo not drawn) [Trolox, reference compound] ... approximately 20%
O=C1CCCC(=O)N1c1ncc(O)cn1 [HK-6] ... approximately 20%
